# credit: patent US20110177071A1

So I've got a bunch of binders here, and I need their Binding Avidity (Relative to Orencia) values.
subject of test: T1, human CD80-murine Ig fusion protein (human)
T1 construct: Bought (Ancell #510-820); also called hCD80-mIg; human CD80-murine IgG
T1 chain: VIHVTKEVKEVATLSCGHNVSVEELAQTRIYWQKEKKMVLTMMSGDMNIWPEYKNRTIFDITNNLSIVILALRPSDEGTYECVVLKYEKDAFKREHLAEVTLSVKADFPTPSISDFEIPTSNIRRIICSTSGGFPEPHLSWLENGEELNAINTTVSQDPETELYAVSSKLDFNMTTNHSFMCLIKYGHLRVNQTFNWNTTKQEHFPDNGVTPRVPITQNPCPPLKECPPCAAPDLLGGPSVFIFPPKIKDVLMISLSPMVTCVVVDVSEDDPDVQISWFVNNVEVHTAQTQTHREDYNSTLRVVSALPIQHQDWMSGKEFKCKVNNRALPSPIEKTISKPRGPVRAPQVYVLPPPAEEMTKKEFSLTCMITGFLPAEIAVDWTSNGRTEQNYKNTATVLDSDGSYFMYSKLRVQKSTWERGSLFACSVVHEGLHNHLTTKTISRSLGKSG
experimental details: SPR Biacore, hCD80-mIg captured

Dear colleague, please send me the reported Binding Avidity (Relative to Orencia) for D3-65-IgG2 (Fc fusion) MHVAQPAVVLASSRGIASFVCEYASPGKANEVRVTVLRQADSQVTEVCAMTYMKGNELTFLDDPSCTGTFSGNQVNLTIQGLRAMDTGLYICKVELMYPPPYYEGIGNGTQIYVIDPEPCPDSDERKCCVECPPCPAPPVAGPSVFLFPPKPKDTLMISRTPEVTCVVVDVSHEDPEVQFNWYVDGVEVHNAKTKPREEQFNSTFRVVSVLTVVHQDWLNGKEYKCKVSNKGLPAPIEKTISKTKGQPREPQVYTLPPSREEMTKNQVSLTCLVKGFYPSDIAVEWESNGQPENNYKTTPPMLDSDGSFFLYSKLTVDKSRWQQGNVFSCSVMHEALHNHYTQKSLSLSPG when you can.
> 2 fold

Dear colleague, please send me the reported Binding Avidity (Relative to Orencia) for D23-IgG2 (Fc fusion) MHVAQPAVVLASSRGIASFVCEYSAPHNAAEIRVTVLRKAGSQVTEVCAMTYMKEDELTFLDDPSCTGTFSGNQVNLTIQGLRAADTGLYICKVELMYPPPYYLGLGNGTQIYVIDPEPCPDSDERKCCVECPPCPAPPVAGPSVFLFPPKPKDTLMISRTPEVTCVVVDVSHEDPEVQFNWYVDGVEVHNAKTKPREEQFNSTFRVVSVLTVVHQDWLNGKEYKCKVSNKGLPAPIEKTISKTKGQPREPQVYTLPPSREEMTKNQVSLTCLVKGFYPSDIAVEWESNGQPENNYKTTPPMLDSDGSFFLYSKLTVDKSRWQQGNVFSCSVMHEALHNHYTQKSLSLSPG when you can.
> 2 fold

Dear colleague, please send me the reported Binding Avidity (Relative to Orencia) for D2-IgG2 (Fc fusion) MHVAQPAVVLASSRGIASFVCEYESPHKANEIRVTVLRQANSQVTEVCAMTYMKGDELTFLDDPFCTGTFSGNQVNLTIQGLRAADTGLYICKVELMYPPPYYLGMGNGTQIYVIDPEPCPDSDERKCCVECPPCPAPPVAGPSVFLFPPKPKDTLMISRTPEVTCVVVDVSHEDPEVQFNWYVDGVEVHNAKTKPREEQFNSTFRVVSVLTVVHQDWLNGKEYKCKVSNKGLPAPIEKTISKTKGQPREPQVYTLPPSREEMTKNQVSLTCLVKGFYPSDIAVEWESNGQPENNYKTTPPMLDSDGSFFLYSKLTVDKSRWQQGNVFSCSVMHEALHNHYTQKSLSLSPG when you can.
> 2 fold
